biological target: PD-1/PD-L1 (Homo sapiens (Human), UniProt Q9NZQ7); test: PD-1/PD-L1 biochemical protein-protein interaction assay (ALPHA); type: binding; settings: 0.3 nM His tagged PD-L1, 2.5 nM biotinylated Fc-PD-1, Table 3B, read-out: IC50 PD-L1-PD1
Sequence (Q9NZQ7 19-238): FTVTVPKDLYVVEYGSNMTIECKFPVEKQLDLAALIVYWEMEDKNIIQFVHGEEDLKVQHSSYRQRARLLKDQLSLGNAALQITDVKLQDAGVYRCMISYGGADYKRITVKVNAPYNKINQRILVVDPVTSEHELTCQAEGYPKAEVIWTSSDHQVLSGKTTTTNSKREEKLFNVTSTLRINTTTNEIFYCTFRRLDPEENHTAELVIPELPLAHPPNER
pIC50: −log10 of the molar value.
READOUT_NAME: pIC50

- COMPOUND: "COc1nc(-c2cccc(-c3cccc4c3CC[C@@H]4Oc3nc(OCc4cc(F)cc(C#N)c4)c(CN4CC5(C(=O)O)CCC4CC5)cc3Cl)c2Cl)ccc1CNC[C@@H]1CCC(=O)N1 [B-30]"
  NUMERIC_RESULT: 9.80
- COMPOUND: "COc1nc(-c2cccc(-c3cccc4c3CC[C@@H]4Oc3nc(OC)c(CN4CC[C@@](C)(C(=O)O)C4)cc3C(F)(F)F)c2Cl)ccc1CNC[C@H]1C[C@](C)(O)C1 [B-208]"
  NUMERIC_RESULT: 10.19
- COMPOUND: "COc1nc(-c2cccc(-c3cccc4c3CC[C@@H]4Oc3nc(OC)c(CNCC4(C(=O)O)CC4)cc3C(F)(F)F)c2Cl)ccc1CN[C@H]1C[C@](C)(O)C1 [B-251]"
  NUMERIC_RESULT: 10.19

====

target: PD-1/PD-L1 (Homo sapiens (Human)); experiment: PD-1/PD-L1 biochemical protein-protein interaction assay (ALPHA); format: binding; settings: 0.3 nM His tagged PD-L1, 2.5 nM biotinylated Fc-PD-1, readings of 0.064 nM are equal to or less than 0.064 nM, read-out: IC50 PD-L1-PD1
pIC50: −log10 of the molar value.
Some molecules, each annotated with its measured pIC50.

- SMILES_STR: "COc1nc(N[C@H]2CCc3c(-c4cccc(-c5ccc(CNC[C@@H]6CCC(=O)N6)c(OCC#N)n5)c4Cl)cccc32)c(C(F)(F)F)cc1CN1CCC[C@]1(C)C(=O)O"
  pIC50: "≥ 10.19"
- SMILES_STR: "COc1nc(-c2cccc(-c3cccc4c3CC[C@@H]4Nc3nc(OC)c(CN)nc3C(F)(F)F)c2Cl)ccc1CNC[C@@H]1CCC(=O)N1"
  pIC50: 10.11
- SMILES_STR: "COc1nc(-c2cccc(-c3cccc4c3CC[C@@H]4Nc3nc(OC)c(CN4CC5(C(=O)O)CCC4CC5)cc3Cl)c2Cl)ccc1CNC[C@@H]1CCC(=O)N1"
  pIC50: "≥ 10.19"

====

target: PD-1/PD-L1 (Homo sapiens (Human)); assay: PD-1/PD-L1 biochemical protein-protein interaction assay (ALPHA); type: binding; settings: 0.3 nM His tagged PD-L1, 2.5 nM biotinylated Fc-PD-1, Table 3B, read-out: IC50 PD-L1-PD1

- SMILES_STR: "COc1cc(O[C@H]2CCc3c(-c4cccc(-c5ccc(CNC[C@@H]6CCC(=O)N6)c(OC)n5)c4Cl)cccc32)c(C(F)(F)F)cc1CNC[C@@H](O)CC(=O)O"
  IC50, nM: 0.064
- SMILES_STR: "COc1cc(-c2cccc(-c3cccc4c3CC[C@@H]4Oc3nc(OC)c(CNC4(C(=O)O)CC4)cc3C(F)(F)F)c2Cl)ccc1CNC[C@@H]1CCC(=O)N1"
  IC50, nM: 0.064
- SMILES_STR: "COc1nc(-c2cccc(-c3cccc4c3CC[C@@H]4Oc3nc(OC)c(CN4C[C@@H]5C[C@]5(C(=O)O)C4)cc3C(F)(F)F)c2Cl)ccc1CNC[C@@H]1CCC(=O)N1"
  IC50, nM: 0.064
- SMILES_STR: "COc1cc(O[C@H]2CCc3c(-c4cccc(-c5ccc(CNC[C@@H]6CCC(=O)N6)c(OC)n5)c4Cl)cccc32)c(C(F)(F)F)cc1CN1CC[C@@](C)(C(=O)O)C1"
  IC50, nM: 0.064
- SMILES_STR: "COc1nc(-c2cccc(-c3cccc4c3CC[C@@H]4Oc3nc4c(nc3Cl)c(CN3CC5(CNC(=O)C5)C3)nn4C)c2Cl)ccc1CNC[C@@H]1CCC(=O)N1"
  IC50, nM: 0.41
